// provenance: ChEMBL document CHEMBL1121825

experiment: Acute toxicity in rats after 2 hours when administered perorally; type: organism-based; conditions: rat, in vivo, po
QUANTITY_MEASURED: LD50 at 2 h

Data request: Suppose we examine the molecule Cc1ccccc1-n1c(C)nc2ccccc2c1=O [METHAQUALONE] ; what LD50 at 2 h value has been reported?
Data returned: > 800 mg/kg

----------
assay: Acute toxicity in mice after 72 hours when administered perorally; type: organism-based; conditions: mouse, in vivo, po
QUANTITY_MEASURED: LD50 at 72 h

Data request: LD50 at 72 h for Cc1ccccc1-n1c(C)nc2ccccc2c1=O [METHAQUALONE] ?
Data returned: > 400 mg/kg

----------
assay: Acute toxicity in mice after 2 hours when administered intraperitoneally; type: organism-based; conditions: mouse, in vivo, ip
QUANTITY_MEASURED: LD50 at 2 h (mg/kg)
Provide only the numeric value, understood in mg/kg.

Data request: What does the data say about its LD50 at 2 h? Entry: Cc1ccccc1-n1c(C)nc2ccccc2c1=O
Data returned: 565

----------
test: Acute toxicity in mice after 2 hours when administered perorally; assay type: organism-based; details: mouse, in vivo, po
QUANTITY_MEASURED: LD50 at 2 h

Data request: State the recorded LD50 at 2 h for this entry: Cc1ccccc1-n1c(C)nc2ccccc2c1=O
Data returned: > 400 mg/kg

----------
assay: Acute toxicity in mice after 72 hours administration ip; type: organism-based; conditions: mouse, in vivo
QUANTITY_MEASURED: LD50 at 72 h

Data request: Which value of LD50 at 72 h has been reported for CC1(C)OC(C)(C)c2c1nnc(-c1cccc([N+](=O)[O-])c1)[n+]2[O-] in the records?
Data returned: > 235 mg/kg

----------
experiment: Acute toxicity in mice after 2 hours administration perorally; type: organism-based; settings: mouse, in vivo, po
QUANTITY_MEASURED: LD50 at 2 h

Data request: Field request: LD50 at 2 h | item: CC1(C)OC(C)(C)c2c1nnc(-c1cccc([N+](=O)[O-])c1)[n+]2[O-]
Data returned: > 400 mg/kg

----------
experiment: Acute toxicity in mice after 72 hours when administered intraperitoneally; assay type: organism-based; conditions: mouse, in vivo, ip
QUANTITY_MEASURED: LD50 at 72 h (mg/kg)
The figure you give is taken to be in mg/kg; do not add the unit.

Data request: Data request, read-out LD50 at 72 h, for Cc1ccccc1-n1c(C)nc2ccccc2c1=O
Data returned: 470

----------
assay: Acute toxicity in rats after 72 hours of administration perorally; type: organism-based; settings: rat, in vivo, po
QUANTITY_MEASURED: LD50 at 72 h

Data request: Dear colleague, I am looking for the recorded LD50 at 72 h of the following molecule: CC1(C)OC(C)(C)c2c1nnc(-c1cccc([N+](=O)[O-])c1)[n+]2[O-]
Data returned: > 800 mg/kg
